Below: a set of entries, each annotated with reported composite z-score.
# assay.notes: COS7 lysate on small-molecule microarray, probe aHis, 635 nm (AID 1123);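 further: z-score combines 667nm fluorescence intensity with signal-to-noise per printed compound spot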
# run.parameters: COS7 cell lysate, fluorescence, higher = more signal
property: composite z-score

{"columns": ["compound", "recorded.value"],
 "data": [
  ["CCOC(=O)C1=CC[C@@H](c2ccccc2)N(S(=O)(=O)C[Si](C)(C)C)[C@H]1c1ccccc1", 1.27],
  ["C=C(CC1([C@@H](NP(=O)(c2ccccc2)c2ccccc2)[C@H]2C[C@@H]2CCN(C(=O)OCC)S(=O)(=O)c2ccc(C)cc2)CC1)c1ccccc1", 2.65],
  ["O=C1O[C@@H](c2ccccc2)[C@@H](c2ccccc2)N2[C@@H](c3ccc(OCCO)cc3)[C@]3(C(=O)Nc4ccc(C#CCCO)cc43)[C@@H](C(=O)Nc3nc4ccccc4s3)[C@H]12", 1.48],
  ["CC(C)CNC(=O)[C@@H]1c2ccccc2C(=O)N(CC23CC4CC(CC(C4)C2)C3)[C@H]1c1ccc(CO)cc1", 1.74],
  ["COc1ccc([Si](C)(C)[C@H]2[C@H](CC(=O)N3Cc4ccccc4C[C@H]3CO)O[C@@]3(C(=O)N(Cc4cccc(N5C(=O)c6cccc7cccc5c67)c4)c4ccccc43)[C@@H]2C)cc1", 1.32],
  ["CCOC(=O)C1=CC[C@@H](c2ccccc2Cl)N(S(=O)(=O)c2ccc(C)cc2)[C@H]1c1cccc(OC)c1", 0.878],
  ["C/C=C/CN(C(=O)C#Cc1ccccc1)[C@H](CO[Si](C)(C)C(C)(C)C)c1ccccc1", 0.043],
  ["Cc1ccc(F)cc1S(=O)(=O)N[C@@H]1CCN(Cc2ccc3c(c2)OCO3)C1", -0.702],
  ["NC(=O)NCC#Cc1ccc2c(c1)[C@]1(C(=O)N2)[C@H](C(=O)N2CCCCCCC2)[C@H]2C(=O)O[C@H](c3ccccc3)[C@H](c3ccccc3)N2[C@@H]1c1ccc(O)cc1", 1.2],
  ["NCCCC[C@@H]1NC(=O)[C@H]2C[C@@H](C(=O)O)[C@@H](c3cccc(OCCO)c3)N2C1=O", 2.88],
  ["COc1ccccc1CN1C(=O)c2ccccc2[C@](Cc2ccccc2I)(C(=O)NCCCN(C)C)[C@@H]1c1ccc(CO)cc1", 1.86],
  ["C=C(/C(=C/C[C@@H](OC(C)=O)c1ccccc1OCCO)c1cc(C(=O)OC)ccc1OC)C(C)C", 0.335],
  ["CC(C)C[C@@H]1NC(=O)[C@@]23C(=O)N[C@@H](Cc4ccccc4)C2[C@H](C)[C@@]2(C)O[C@H]2C3/C=C/C/C=C\\CNC(=O)[C@@H](CC(C)C)NC1=O (stereo not given in full)", 0.925],
  ["CC(C)C(=C=CC[C@@H](O)c1cccc(OCCO)c1)CCO", 0.502],
  ["Cc1ccccc1C(O)C1C=CC2C(=O)N(c3ccccc3)C(=O)C2N1Nc1ccccc1F (stereo not given)", 3.01]
]}
